system: PPARg:RXRa 30nM:10nM, anti-RXR (NR concentration 30 nM, RXRa partner concentration 10 nM); experiment: PBM binding z-score (relative to random genomic background probes); higher = stronger binding; sequences stand for … in GC…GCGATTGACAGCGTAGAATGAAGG
met means recorded PBM binding z-score is 0.1 or above; not met means it is below 0.1.

Form field: PBM binding z-score at least 0.1? Entry: GCAGAAAGGTGAAACGCAGGTAACTCAGGGTGGC
not met

Moving on to TCTTGTAGATCAAGCAGGTTACGAAAGCCTGAGT
met

Moving on to CCTATTAGTTGACGATAAGGGCAACCGAAGCTCG
not met

Moving on to CTACCAAGGTGAACAAGGTCGTTGCTTACTATTC
not met

Moving on to GCTGCTAGGTCAGGTTGGTCAGCCAACGGGTACG
not met

Moving on to CGAACTTGGTCATTGACAGGACAGTGAATAGTAA
not met

Moving on to TCTTATAGGTAATACAGGTGAAAGTCGGCATCTA
met

Moving on to CTCGAAAGGTCGGTTGAGGTGAATATACGGATAA
met

Moving on to CCTGCTAGGTGATGGTCAGCTAATCTACAGTATG
not met

Moving on to ATATGTAGGTTACATCCGGGTCATGCAGGCTATG
met

Moving on to ACTAGTTGGTCAGCTGAGGTCACACGCAATTCGG
met

Moving on to AATACAGGGACACTAGGCCAGAGTAGGTACGAAT
met

====

tested on: THRa:RXRa (NR concentration 90 nM, RXRa partner concentration 90 nM); assay: PBM binding z-score (relative to random genomic background probes); higher = stronger binding; sequences stand for … in GC…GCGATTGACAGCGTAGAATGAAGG
For each record, write down the corresponding PBM binding z-score.

So what's the measured PBM binding z-score for this one? ACTATTAGTTGAGACGAGAGCAACCGATAGGTTG
-0.0893

Moving on to GCTACTTGGTCAGTAAAAGGTCACACACCGGTCG
3.55

Moving on to TCTGCTAGTTCAACGATGGTCAGCTAATCTGCTA
0.928

Moving on to ACTATCAGGCCAAGTTTGGGTCACTCAAACAAAG
2.93

Moving on to CCGACTGGGGCAGAAAGGTTCCCATACCATCCGG
-0.504

Moving on to CTCGAAAGGTCGTGCTCAGGTGAGGATACCAAAC
4.22

Moving on to ACTTACGGGTCAGCGAGGTTATAGCACGCGTATA
3.83

Moving on to CAAACTAGGTCGAGGTCAAAGTCGGTTTGTGCCA
4.31

Moving on to ATCGAAAGGTCGTGAGGTGAATATACAGAAAGGC
3.72

Moving on to TCTGCTAGGTCAACGATGGTCACCTAATCTGCTA
3.58

Moving on to AGAACGAGGGCAATGAGTTGGTAGCACGGGTGGC
0.555

Moving on to CCTAGGAGGCCAGGGTCACTCAAGCATTTCGCTT
2.8

====

For each record, write down the corresponding PBM binding z-score.
system: RARg homodimer (NR concentration 270 nM); assay: PBM binding z-score (relative to random genomic background probes); higher = stronger binding; sequences stand for … in GC…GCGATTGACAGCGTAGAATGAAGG
// return just the number, without any unit appended

So what's the measured PBM binding z-score for this one? CGTCCAAGATCAGAGAGGTCAGTGAATGCCGAGT
3

Moving on to TCGAATAGGTTAGGGGCATTCAGAATGGCGTCGA
0.9

Moving on to TGATATAGGTAAATGCTAGGTGAAAGTCCGATCT
0.33

Moving on to CCTACTTGGCCAAAGGTCATTGATTCCAATGCTC
4.64

Moving on to TCGAGTAGGTTAGGGGCACTCAGAATGGCGTCGA
0.17

Moving on to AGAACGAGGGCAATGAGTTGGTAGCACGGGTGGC
1.09

Moving on to ATATGTAGGTTATTGGGTCATTCAGTTTGCGCAT
2.45

Moving on to ATCACTAGGTAAAGATAGTTCAGTGAATGCAAAT
0.795

Moving on to CGTCCAAGGTCAGCAGGTCAGTGCAAGCGACGTG
6.82

Moving on to AGTTAAAGTTCAGGACGAGGTAACGTAAAGCACG
4.39

Moving on to TCGATTAGTTGATTAGGGCAACCGAAACAGCGGA
0.329

Moving on to TCTGCTAGGTCTACGATGGTCAGCTAATCTGCTA
-0.409

Moving on to GATACAGGGTCCAGGCCAGAGTACGCGTATTGAT
0.255

Moving on to CAAACTAGGTCACAGAGCTCAAAGTCCGTGCGTA
4.81

Moving on to ATCTCAAGGTAAAGATAGTTCAGTGAATGCAAAT
1.11

Moving on to CCGACTGGGGTATAAGGTTACCATAAGCCAGCCC
0.421

Moving on to CGTCAAAATTCAAGGTAACGTAACAGAAAGCAGC
0.447

Moving on to TTACCAAGGTGAGCTGAGGTCGTTGATCCAACTC
1.11

Moving on to TCTGCTAGGTCAGTCGGTCAGCTAACGAGCTGCC
4.64

Moving on to CGAACTAGGGCAGAACAGGACAGTGAAGGATGAT
0.757

Moving on to TGTAAAAGTTCAAAGGTAACGTAAGTATCCACAC
5.12

Moving on to TCGAGTAGGTTAGTCGAGGCATTCAGCCAACATA
-0.249

Moving on to TCTATTAGTTGAAGGGCAACCGGCGAGTCCGTTT
0.37

Moving on to GCAACTGGGGCATCAGCAGGTTACCATAACTTAA
0.473

Moving on to CTTACTGGGCCATCAGGTCATTGATATCAACGTT
2.54

Moving on to GCTAGCAGGCCATTTGGGTCACCCAATGACGGGC
1.58

====

test system: RARb:RXRa (NR concentration 270 nM, RXRa partner concentration 90 nM); experiment: PBM binding z-score (relative to random genomic background probes); higher = stronger binding; sequences stand for … in GC…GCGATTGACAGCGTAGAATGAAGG
OUTCOME MEASURE: PBM binding z-score
// return just the number, without any unit appended

Give the reported PBM binding z-score for ATATGTAAGTTACATCCGGGTCATTCAGGCTATG (system: RARb:RXRa (NR concentration 270 nM, RXRa partner concentration 90 nM)).
1.72

Moving on to GGAACGAGGGCAAGTTGATATCAGAGTTTGATGG
2.57

Moving on to TGAATGAGGTTAGAGATCAGGGAACGTGGCGTCG
1.3

Moving on to AGAACGAGGTTATACGTAGATCAGGGAAGAAAGT
1.27

Moving on to CGAACTAGGTCAGAACAGGACAGTGCAGGATGAT
2.96

Moving on to CGTCCAAGGTCCAGGTCAGTGAAAGAGACTCGAA
2.52

Moving on to ATATGTAGGTTACACCCGGGTCATTCAGGCTATG
2.35

Moving on to CATACAAGGTCAGCTAGGCCAGAGTAGGGACGGC
4.89

Moving on to CCTAGCAGGCCAATCCGGGTCACTCAAGGCTTGA
1.63

Moving on to TTACCAAGGTTAGCTGAGGTCGTTGATCCAACTC
2.1

Moving on to GGAACGAGGGCATTCGAATTGATAGCATGGCGAT
1.9

Moving on to ACTTACGGGTCAACGAGGTTATACCACGCGTATA
4.34

Moving on to CGTCCAAGGTCAGGGTCAGTGAAAGAGACTCGAA
5.2

Moving on to ATATGTAGGTTACATCCGGGTCCTTCAGGCTATG
0.999

Moving on to ACTCGCAGGCCAAGTTTGGGTCACTCAAACAAAG
1.89

Moving on to ATCTCTAGGGAAAGTTCAGTGAAAGATCGATAGA
2.61

Moving on to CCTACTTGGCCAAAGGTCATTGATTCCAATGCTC
4.57

Moving on to ATATGTAGTTTAAGGGTCATTCAGGTTGGTTCGC
3.42

Moving on to TAGCCGAGGTCATTGGGCCAGTATAGTACGCATC
4.78

Moving on to AGTCAAAGTTCAGGACGAGGTGACGTAAAGCACG
4.46

Moving on to CCTAGCAGGCCAATCTGGGTCACTCAGGGCTTGA
1.35

Moving on to CCTACTGGGCCACGAAAGATCATTGATTCAGTGA
0.211

Moving on to TTACCAAGGTGAAGGCCGTTGATCCCTCTGTAGA
1.34

Moving on to GCCGCTAGGTCAGGTTGGTCAGCTAACGGGTACG
3.27

Moving on to ATATGTAGGTTATCGGATCATTCAGTTTGCGCAT
0.993

Moving on to ATATGTAGGTTACATCCGGGTCATTTAGGCTATG
2.16
